# Test system: MV4-11
# PROTOCOL_NOTES: Cytotoxicity against human MV4-11 cells assessed as reduction in cell viability incubated for 72 hrs by cell-titer blue assay
# Assay type: functional, cell-based
# TEST_SETTINGS: MV4-11, 72 h
IC50 values, listed per item
Answer with a number only, understood to be in µM.

Worked examples follow.
SMILES_RECORD: CC(C)(C)c1ccc(C(=O)Nc2ccc(C(=O)NO)cc2)cc1
MEASUREMENT_TARGET: MV4-11
IC50 [µM]: 0.576
//
SMILES_RECORD: CC(C)(C)c1ccc(CN(C(=O)CN(Cc2c(F)c(F)c(F)c(F)c2F)S(C)(=O)=O)c2ccc(C(=O)NO)cc2)cc1
MEASUREMENT_TARGET: MV4-11
IC50 [µM]: 1.62
//
SMILES_RECORD: CC(C)(C)OC(=O)N(Cc1ccc(C(C)(C)C)cc1)c1ccc(C(=O)NO)cc1
MEASUREMENT_TARGET: MV4-11
IC50 [µM]: 3.12
//
SMILES_RECORD: CC(C)(C)c1ccc(CN(C(=O)CN(Cc2c(F)c(F)c(F)c(F)c2F)S(=O)(=O)c2ccc(F)cc2)c2ccc(C(=O)NO)cc2)cc1
MEASUREMENT_TARGET: MV4-11
IC50 [µM]: 1.88
//
SMILES_RECORD: O=C(NO)c1ccc(N(Cc2ccccc2)C(=O)CN(Cc2c(F)c(F)c(F)c(F)c2F)S(=O)(=O)c2ccc(F)cc2)cc1
MEASUREMENT_TARGET: MV4-11
IC50 [µM]: 5.8
//
SMILES_RECORD: CC(=O)N(Cc1ccc(C(C)(C)C)cc1)c1ccc(C(=O)NO)cc1
MEASUREMENT_TARGET: MV4-11
IC50 [µM]: 4.24
//
SMILES_RECORD: O=C(CCCCCCC(=O)Nc1ccccc1)NO
MEASUREMENT_TARGET: MV4-11
IC50 [µM]: 0.31
//
SMILES_RECORD: CN(C(=O)CN(C)S(=O)(=O)c1ccc(F)cc1)c1ccc(C(=O)NO)cc1
MEASUREMENT_TARGET: MV4-11
IC50 [µM]: 14.6
//
SMILES_RECORD: CN(C(=O)CN(Cc1c(F)c(F)c(F)c(F)c1F)S(=O)(=O)c1ccc(F)cc1)c1ccc(C(=O)NO)cc1
MEASUREMENT_TARGET: MV4-11
IC50 [µM]: 3.24
//
SMILES_RECORD: CC(C)(C)c1ccc(CNc2ccc(C(=O)NO)cc2)cc1
MEASUREMENT_TARGET: MV4-11
IC50 [µM]: 3.49

Reported IC50 ( `CN(CC(=O)N(Cc1ccc(C(C)(C)C)cc1)c1ccc(C(=O)NO)cc1)S(=O)(=O)c1ccc(F)cc1` ) = 3.41

Reported IC50 ( `CC(C)(C)c1ccc(CN(C(=O)CNS(=O)(=O)c2ccc(F)cc2)c2ccc(C(=O)NO)cc2)cc1` ) = 3.33

----------
# MEASUREMENT_TARGET: Histone deacetylase 11 (Homo sapiens, UniProt Q96DB2)
# Sequence (Q96DB2 whole entry): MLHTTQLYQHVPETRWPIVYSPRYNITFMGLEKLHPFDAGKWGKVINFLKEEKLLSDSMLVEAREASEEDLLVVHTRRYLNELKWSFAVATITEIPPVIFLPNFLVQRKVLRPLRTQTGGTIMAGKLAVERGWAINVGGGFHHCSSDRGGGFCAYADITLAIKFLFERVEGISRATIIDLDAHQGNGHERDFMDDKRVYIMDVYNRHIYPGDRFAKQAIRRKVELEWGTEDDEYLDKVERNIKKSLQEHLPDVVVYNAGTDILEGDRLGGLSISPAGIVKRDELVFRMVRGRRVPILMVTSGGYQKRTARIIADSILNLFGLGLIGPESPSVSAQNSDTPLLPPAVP
# PROTOCOL_NOTES: Inhibition of recombinant full length human HDAC11 expressed in baculovirus infected Sf9 cells using FAM-RHKK-TFAc as substrate incubated for 17 hrs by electrophoretic mobility shift assay
ASSAY_METRIC: IC50

Worked examples follow.
SMILES_RECORD: CC(=O)N(Cc1ccc(C(C)(C)C)cc1)c1ccc(C(=O)NO)cc1
IC50: > 1 µM
--
SMILES_RECORD: CN(C(=O)CN(Cc1c(F)c(F)c(F)c(F)c1F)S(=O)(=O)c1ccc(F)cc1)c1ccc(C(=O)NO)cc1
IC50: > 1 µM

Kindly review the next compound as well.
Reported IC50 ( `CC(C)(C)c1ccc(CNc2ccc(C(=O)NO)cc2)cc1` ) = > 1 µM

----------
IC50 values, listed per item
# MEASUREMENT_TARGET: Histone deacetylase 11 (Homo sapiens)
# PROTOCOL_NOTES: Inhibition of recombinant full length human HDAC11 expressed in baculovirus infected Sf9 cells using FAM-RHKK-TFAc as substrate incubated for 17 hrs by electrophoretic mobility shift assay

Worked examples follow.
SMILES_RECORD: CN(C(=O)CN(C)S(=O)(=O)c1ccc(F)cc1)c1ccc(C(=O)NO)cc1
IC50: > 1000 nM
//
SMILES_RECORD: CC(C)(C)c1ccc(C(=O)Nc2ccc(C(=O)NO)cc2)cc1
IC50: > 1000 nM

Kindly review the next compound as well.
# IC50 measured on Histone deacetylase 11 (Homo sapiens) for item `CC(C)(C)c1ccc(CN(C(=O)CN(Cc2c(F)c(F)c(F)c(F)c2F)S(C)(=O)=O)c2ccc(C(=O)NO)cc2)cc1` = > 1000 nM

----------
# Tested on: MDA-MB-468
# PROTOCOL_NOTES: Cytotoxicity against human MDA-MB-468 cells assessed as reduction in cell viability incubated for 72 hrs by cell-titer blue assay
# Assay type: functional, cell-based
# TEST_SETTINGS: MDA-MB-468, 72 h
ASSAY_METRIC: IC50

Worked examples follow.
SMILES_RECORD: CC(C)(C)c1ccc(C(=O)Nc2ccc(C(=O)NO)cc2)cc1
IC50: > 50 µM

SMILES_RECORD: CC(C)(C)c1ccc(CN(C(=O)CN(Cc2c(F)c(F)c(F)c(F)c2F)S(=O)(=O)c2ccc(F)cc2)c2ccc(C(=O)NO)cc2)cc1
IC50: 4.21 µM

SMILES_RECORD: CC(C)(C)c1ccc(CN(C(=O)CN(Cc2c(F)c(F)c(F)c(F)c2F)S(C)(=O)=O)c2ccc(C(=O)NO)cc2)cc1
IC50: > 25 µM

SMILES_RECORD: CN(CC(=O)N(Cc1ccc(C(C)(C)C)cc1)c1ccc(C(=O)NO)cc1)S(=O)(=O)c1ccc(F)cc1
IC50: > 12.5 µM

Kindly review the next compound as well.
# IC50 measured on MDA-MB-468 for item `CN(C(=O)CN(Cc1c(F)c(F)c(F)c(F)c1F)S(=O)(=O)c1ccc(F)cc1)c1ccc(C(=O)NO)cc1` = > 25 µM
